Target: Phenylethanolamine N-methyltransferase (Homo sapiens)
Sequence (whole entry): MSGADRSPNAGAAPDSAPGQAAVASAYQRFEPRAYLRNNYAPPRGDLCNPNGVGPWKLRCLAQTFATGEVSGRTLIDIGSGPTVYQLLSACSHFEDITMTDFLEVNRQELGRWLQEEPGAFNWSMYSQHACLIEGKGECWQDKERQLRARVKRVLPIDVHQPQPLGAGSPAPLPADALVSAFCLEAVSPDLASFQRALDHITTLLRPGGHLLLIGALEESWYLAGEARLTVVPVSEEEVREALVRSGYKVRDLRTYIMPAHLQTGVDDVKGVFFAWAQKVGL
Settings: Oryctolagus cuniculus
Description: Inhibition of phenylethanolamine N-methyltransferase(PNMT)activity
I'd appreciate it if you could supply pI50 values for the items below.

Enquiry: # get_value(readout='pI50', item= `NCc1ccc(Cl)cc1Cl` )
Return: 4.68

Enquiry: # get_value(readout='pI50', item= `NCc1ccc(C(F)(F)F)cc1` )
Return: 5.2

Enquiry: # get_value(readout='pI50', item= `Cc1cccc(CN)c1` )
Return: 3.82

Enquiry: # get_value(readout='pI50', item= `NCc1cccc(Cl)c1` )
Return: 5.07

Enquiry: # get_value(readout='pI50', item= `NCc1ccccc1F` )
Return: 3.87

Enquiry: # get_value(readout='pI50', item= `NCc1cccc(C(F)(F)F)c1` )
Return: 5.64

Enquiry: # get_value(readout='pI50', item= `Cc1ccc(CN)cc1` )
Return: 3.16

Enquiry: # get_value(readout='pI50', item= `Cc1cccc(CN)c1C` )
Return: 4.24

Enquiry: # get_value(readout='pI50', item= `NCc1ccccc1C(F)(F)F` )
Return: 4.64

Enquiry: # get_value(readout='pI50', item= `Cc1ccccc1CN` )
Return: 4.17

Enquiry: # get_value(readout='pI50', item= `NCc1cccc(F)c1` )
Return: 4

Enquiry: # get_value(readout='pI50', item= `NCc1cc(Cl)ccc1Cl` )
Return: 4.82

---

I'd appreciate it if you could supply Log ED50 values for the items below.
species: Mus musculus; assay: Logarithm of effective dose evaluated using the foot-shock test in mice; type: functional
Lab book: enter the figure in mM kg-1, no units written.

Enquiry: # get_value(readout='Log ED50', item= `CSc1ccc2c(c1)C(c1ccccc1)=NCC(=O)N2C` )
Return: 0.87

Enquiry: # get_value(readout='Log ED50', item= `O=C1CN=C(c2ccccc2)c2cc(C(F)(F)F)ccc2N1` )
Return: 1.48

Enquiry: # get_value(readout='Log ED50', item= `CN1C(=O)CN=C(c2ccccc2Cl)c2cc(Cl)ccc21` )
Return: 1.5

Enquiry: # get_value(readout='Log ED50', item= `CN(C)c1ccc2c(c1)C(c1ccccc1)=NCC(=O)N2C` )
Return: 0.86

Enquiry: # get_value(readout='Log ED50', item= `CSc1ccc2c(c1)C(c1ccccc1)=NCC(=O)N2` )
Return: 1.15

Enquiry: # get_value(readout='Log ED50', item= `O=C1CN=C(c2ccccc2)c2ccccc2N1` )
Return: 0.37

Enquiry: # get_value(readout='Log ED50', item= `CN1C(=O)CN=C(c2ccccc2F)c2ccccc21` )
Return: 0.83

Enquiry: # get_value(readout='Log ED50', item= `CN1C(=O)CN=C(c2ccccc2Cl)c2cc([N+](=O)[O-])ccc21` )
Return: 2.12

Enquiry: # get_value(readout='Log ED50', item= `CN1C(=O)CN=C(c2ccccc2)c2cc(Cl)ccc21` )
Return: 1.45

Enquiry: # get_value(readout='Log ED50', item= `CN1C(=O)CN=C(c2ccccc2)c2cc([N+](=O)[O-])ccc21` )
Return: 2.07

Enquiry: # get_value(readout='Log ED50', item= `O=C1CN=C(c2ccccc2)c2cc(F)ccc2N1` )
Return: 0.4

Enquiry: # get_value(readout='Log ED50', item= `CN1C(=O)CN=C(c2ccccc2)c2cc(C#N)ccc21` )
Return: 1.74

Enquiry: # get_value(readout='Log ED50', item= `CN1C(=O)CN=C(c2ccccc2C(F)(F)F)c2cc([N+](=O)[O-])ccc21` )
Return: 1.86

Enquiry: # get_value(readout='Log ED50', item= `CN1C(=O)CN=C(c2ccccc2F)c2cc(Cl)ccc21` )
Return: 1.78

Enquiry: # get_value(readout='Log ED50', item= `O=C1CN=C(c2ccccc2)c2cc([N+](=O)[O-])ccc2N1` )
Return: 1.75

Enquiry: # get_value(readout='Log ED50', item= `N#Cc1ccc2c(c1)C(c1ccccc1)=NCC(=O)N2` )
Return: 0.81

Enquiry: # get_value(readout='Log ED50', item= `CN1C(=O)CN=C(c2ccccc2F)c2cc([N+](=O)[O-])ccc21` )
Return: 2.59

Enquiry: # get_value(readout='Log ED50', item= `CN(C)c1ccc2c(c1)C(c1ccccc1Cl)=NCC(=O)N2C` )
Return: 0.61
